- System: EC878 E. coli tolC
- PROTOCOL_NOTES: broth dilution MIC, E. coli EC878
- Format: cell-based
- DETAILS: Escherichia coli
ENDPOINT_NAME: MIC (µg/mL)
Give bare numbers, in µg/mL.

Example cases with answers are listed next.
[[record]]
compound = "CC[C@H]1OC(=O)[C@H](C)C(=O)C[C@@H](O[C@@H]2OC(C)CC(N(C)C)C2O)[C@](C)(OC)C[C@@H](C)CN[C@H](C)[C@H]2N(CCCCn3cc(-c4nc5ccccc5s4)nn3)C(=O)O[C@]12C (stereo partly drawn)"
endpoint_name = "MIC"
display_unit = "µg/mL"
measured_value = 1

[[record]]
compound = "CC[C@H]1OC(=O)[C@](C)(F)C(=O)C[C@@H](O[C@@H]2OC(C)CC(N(C)C)C2O)[C@](C)(OC)C[C@@H](C)CN[C@H](C)[C@H]2N(CCCCn3cc(-c4cccc(N)c4)nn3)C(=O)O[C@]12C (stereo partly drawn)"
endpoint_name = "MIC"
display_unit = "µg/mL"
measured_value = 16


## Task Give MIC (EC878 E. coli tolC) of the following compound: CC[C@H]1OC(=O)[C@](C)(F)C(=O)C[C@@H](O[C@@H]2OC(C)CC(N(C)C)C2O)[C@](C)(OC)C[C@@H](C)CN[C@H](C)[C@H]2N(CCCCn3cc(-c4nc5ccccc5s4)nn3)C(=O)O[C@]12C (stereo partly drawn)
## Result 32

* * *

- Test system: EC878 E. coli tolC
- PROTOCOL_NOTES: broth dilution MIC, E. coli EC878
- Format: cell-based
- DETAILS: Escherichia coli
ENDPOINT_NAME: MIC

Reference set, count: 6
[[record]]
compound = "CC[C@H]1OC(=O)[C@H](C)C(=O)[C@H](C)[C@@H](O[C@@H]2OC(C)CC(N(C)C)C2O)[C@](C)(OC)C[C@@H](C)CN[C@H](C)[C@H]2N(CCCCn3cc(-c4cccnn4)nn3)C(=O)O[C@]12C (stereo partly drawn) [FSM-20710]"
measured_value = "1 µg/mL"

[[record]]
compound = "CC[C@H]1OC(=O)[C@H](C)C(=O)C[C@@H](O[C@@H]2OC(C)CC(N(C)C)C2O)[C@@](C)(OC)C[C@@H](C)CN[C@H](C)[C@H]2N(CCCCn3cc(-c4nccs4)nn3)C(=O)O[C@]12C (stereo partly drawn) [FSM-30501]"
measured_value = "> 32 µg/mL"

[[record]]
compound = "CC[C@H]1OC(=O)[C@H](C)C(=O)C[C@@H](O[C@@H]2OC(C)CC(N(C)C)C2O)[C@](C)(OC)C[C@@H](C)CN(C(C)=O)[C@H](C)[C@H]2N(CCCCN=[N+]=[N-])C(=O)O[C@]12C (stereo partly drawn) [FSM-10789]"
measured_value = "4 µg/mL"

[[record]]
compound = "CC[C@H]1OC(=O)C(C)(F)C(=O)[C@@H](C)[C@@H](O[C@@H]2OC(C)CC(N(C)C)C2O)[C@](C)(OC)C[C@@H](C)CN(C)[C@H](C)[C@H]2N(CCCCn3cc(-c4nccs4)nn3)C(=O)O[C@]12C (stereo partly drawn) [FSM-20705]"
measured_value = "2 µg/mL"

[[record]]
compound = "CC[C@H]1OC(=O)[C@H](C)C(=O)C[C@@H](O[C@@H]2OC(C)CC(N(C)C)C2O)[C@](C)(OC)C[C@@H](C)CN(C(C)=O)[C@H](C)[C@H]2N(CCCCn3cc(-c4nc5ccccc5s4)nn3)C(=O)O[C@]12C (stereo partly drawn) [FSM-10791]"
measured_value = "2 µg/mL"

[[record]]
compound = "CC[C@H]1OC(=O)[C@H](C)C(=O)C[C@@H](O[C@@H]2OC(C)CC(N(C)C)C2O)[C@@](C)(OC)C[C@@H](C)CN(C(C)=O)[C@H](C)[C@H]2N(CCCCn3cc(-c4cccnn4)nn3)C(=O)O[C@]12C (stereo partly drawn) [FSM-30513]"
measured_value = "> 32 µg/mL"


Batch lookup, MIC per entry.
1. CC[C@H]1OC(=O)[C@H](C)C(=O)C[C@@H](O[C@@H]2OC(C)CC(N(C)C)C2O)[C@](C)(OC)C[C@@H](C)CN[C@H](C)[C@H]2N(CCCCn3cc(-c4cccnn4)nn3)C(=O)O[C@]12C (stereo partly drawn) [FSM-10785]
2. CC[C@H]1OC(=O)[C@H](C)C(=O)[C@H](C)[C@@H](O[C@@H]2OC(C)CC(N(C)C)C2O)[C@](C)(OC)C[C@@H](C)CN[C@H](C)[C@H]2N(CCCCn3cc(-c4nccs4)nn3)C(=O)O[C@]12C (stereo partly drawn) [FSM-20708]

## Result
2 µg/mL
1 µg/mL

## Task Requested field: MIC. Item: CC[C@H]1OC(=O)[C@H](C)C(=O)C[C@@H](O[C@@H]2OC(C)CC(N(C)C)C2O)[C@](C)(OC)C[C@@H](C)CN(C(C)=O)[C@H](C)[C@H]2N(CCCCn3cc(-c4ccccn4)nn3)C(=O)O[C@]12C (stereo partly drawn) [FSM-10792]
## Result 4 µg/mL

* * *

Kindly state MIC for each of the entries shown.
- System: BS1725 B. subtilis ermC
- PROTOCOL_NOTES: broth dilution MIC, B. subtilis BS1725
- Assay type: cell-based
- DETAILS: Bacillus subtilis, BS1725 B. subtilis ermC (+ery)

Before answering, review these 8 worked examples.
[[record]]
compound = "CC[C@H]1OC(=O)[C@H](C)C(=O)C[C@@H](O[C@@H]2OC(C)CC(N(C)C)C2O)[C@@](C)(OC)C[C@@H](C)CN(C(C)=O)[C@H](C)[C@H]2N(CCCCn3cc(-c4nccs4)nn3)C(=O)O[C@]12C (stereo partly drawn)"
measured_value = "> 32 µg/mL"

[[record]]
compound = "CC[C@H]1OC(=O)[C@H](C)C(=O)C[C@@H](O[C@@H]2OC(C)CC(N(C)C)C2O)[C@](C)(OC)C[C@@H](C)CN(C(C)=O)[C@H](C)[C@H]2N(CCCCn3cc(-c4ccccn4)nn3)C(=O)O[C@]12C (stereo partly drawn)"
measured_value = "> 32 µg/mL"

[[record]]
compound = "CC[C@H]1OC(=O)[C@H](C)C(=O)[C@H](C)[C@@H](O[C@@H]2OC(C)CC(N(C)C)C2O)[C@](C)(OC)C[C@@H](C)CN[C@H](C)[C@H]2N(CCCCn3cc(-c4nc5ccccc5s4)nn3)C(=O)O[C@]12C (stereo partly drawn)"
measured_value = "32 µg/mL"

[[record]]
compound = "CC[C@H]1OC(=O)[C@H](C)C(=O)[C@H](C)[C@@H](O[C@@H]2OC(C)CC(N(C)C)C2O)[C@](C)(OC)C[C@@H](C)CN[C@H](C)[C@H]2N(CCCCn3cc(-c4cccnn4)nn3)C(=O)O[C@]12C (stereo partly drawn)"
measured_value = "32 µg/mL"

[[record]]
compound = "CC[C@H]1OC(=O)[C@H](C)C(=O)C[C@@H](O[C@@H]2OC(C)CC(N(C)C)C2O)[C@@](C)(OC)C[C@@H](C)CN[C@H](C)[C@H]2N(CCCCn3cc(-c4ccccn4)nn3)C(=O)O[C@]12C (stereo partly drawn)"
measured_value = "> 32 µg/mL"

[[record]]
compound = "CC[C@H]1OC(=O)C(C)(F)C(=O)[C@@H](C)[C@@H](O[C@@H]2OC(C)CC(N(C)C)C2O)[C@](C)(OC)C[C@@H](C)CN(C)[C@H](C)[C@H]2N(CCCCn3cc(-c4nccs4)nn3)C(=O)O[C@]12C (stereo partly drawn)"
measured_value = "> 32 µg/mL"

[[record]]
compound = "CC[C@H]1OC(=O)[C@H](C)[C@@H](O[C@H]2C[C@@](C)(OC)[C@@H](O)[C@H](C)O2)[C@H](C)[C@@H](O[C@@H]2O[C@H](C)C[C@H](N(C)C)[C@H]2O)[C@](C)(O)C[C@@H](C)C(=O)[C@H](C)[C@@H](O)[C@]1(C)O [Erythromycin, erythromycin, reference compound]"
measured_value = "> 32 µg/mL"

[[record]]
compound = "CC[C@H]1OC(=O)[C@H](C)C(=O)C[C@@H](O[C@@H]2OC(C)CC(N(C)C)C2O)[C@@](C)(OC)C[C@@H](C)CN(C(C)=O)[C@H](C)[C@H]2N(CCCCn3cc(-c4cccc(N)c4)nn3)C(=O)O[C@]12C (stereo partly drawn)"
measured_value = "> 32 µg/mL"


## Task Could you share what MIC was measured for CCC[C@@H]1C[C@@H](C(=O)N[C@@H]([C@H]2O[C@H](SC)[C@H](O)[C@@H](O)[C@H]2O)[C@H](C)Cl)N(C)C1 [Clindamycin, clindamycin, reference compound] , tested on BS1725 B. subtilis ermC?
## Result 4 µg/mL

* * *

- Test system: EC882 E. coli imp
- PROTOCOL_NOTES: broth dilution MIC, E. coli EC882
- Type: cell-based
- DETAILS: Escherichia coli
I'd appreciate it if you could supply MIC values for the items below.
Answers are plain numbers, in µg/mL.

Reference set, count: 3
[[record]]
compound = "CC[C@H]1OC(=O)[C@H](C)C(=O)C[C@@H](O[C@@H]2OC(C)CC(N(C)C)C2O)[C@](C)(OC)C[C@@H](C)CN(C(C)=O)[C@H](C)[C@H]2N(CCCCn3cc(-c4nccs4)nn3)C(=O)O[C@]12C (stereo partly shown) [FSM-10790]"
endpoint_name = "MIC"
measured_value = 1

[[record]]
compound = "CC[C@H]1OC(=O)[C@H](C)C(=O)C[C@@H](O[C@@H]2OC(C)CC(N(C)C)C2O)[C@](C)(OC)C[C@@H](C)CN[C@H](C)[C@H]2N(CCCCn3cc(-c4cccc(N)c4)nn3)C(=O)O[C@]12C (stereo partly shown) [FSM-10781]"
endpoint_name = "MIC"
measured_value = 0.25

[[record]]
compound = "CC[C@H]1OC(=O)[C@](C)(F)C(=O)C[C@@H](O[C@@H]2OC(C)CC(N(C)C)C2O)[C@](C)(OC)C[C@@H](C)CN[C@H](C)[C@H]2N(CCCCn3cc(-c4cccnn4)nn3)C(=O)O[C@]12C (stereo partly shown) [FSM-10667]"
endpoint_name = "MIC"
measured_value = 4


## Task Which MIC is listed for CC[C@H]1OC(=O)C(C)(F)C(=O)[C@@H](C)[C@@H](O[C@@H]2OC(C)CC(N(C)C)C2O)[C@](C)(OC)C[C@@H](C)CN[C@H](C)[C@H]2N(CCCCn3cc(-c4nc5ccccc5s4)nn3)C(=O)O[C@]12C (stereo partly shown) [FSM-20722] ?
## Result 0.5
